Test system: CCRF-CEM leukemia
experiment.summary: NCI tumour cell line growth inhibition, 48 h
For each entry below, report its TGI value.

In [3]: df
Out[3]:
                                   compound  endpoint_result
0  CCOC(=O)CC(NC(=O)c1ccc(N=NN(C)C)cc1)C(=O)OCC (stereo not drawn)         > 100 µM
1  O=C1/C(=C\c2ccccc2)C2OCC=C3CN4CCC56c7ccccc7N1C5C2C3CC46 (stereo not drawn)         > 100 µM

query: Determine its reported TGI: "CCc1cc(Cc2ccc(C)c(NC(=O)C(=O)C3C(=O)NC(=O)NC3=O)c2CC)cc(C)c1NC(=O)C(=O)C1C(=O)NC(=O)NC1=O"
result: > 100 µM
